- Test system: NS3/4a protease inhibitor resistant variant R155K in genotype 1a transient HCV replicon
- RUN_DESCRIPTION: Transient-transfected HCV replicon, genotype 1a R155K
- Assay type: cell-based
- CONDITION_DESCRIPTION: Hepatitis C virus, 72 h, read-out: EC50 1A R155K
Assign pEC50 to each entry below.
Reminder that pEC50 means the negative base-10 logarithm of the concentration expressed in mol/L.

Challenge: // pEC50 lookup, key: COc1ccc2nc3c(nc2c1)O[C@@H]1C[C@@H](C(=O)N[C@]2(C(=O)NS(=O)(=O)C4(C)CC4)C[C@H]2C(F)F)N(C1)C(=O)[C@H](C(C)(C)C)NC(=O)O[C@@H]1C[C@@H]2C[C@@H]2[C@H]1CCCCC3(F)F [Example 10]
Response given: 8.89

Challenge: // pEC50 lookup, key: COc1ccc2c(=O)n3c(nc2c1)O[C@@H]1C[C@@H](C(=O)N[C@]2(C(=O)NS(=O)(=O)C4(C)CC4)C[C@H]2C(F)F)N(C1)C(=O)[C@H](C(C)(C)C)NC(=O)O[C@@H]1C[C@@H]2C[C@@H]2[C@H]1CCCCC3 [Example 26]
Response given: 9.00

Challenge: // pEC50 lookup, key: COc1ccc2nc3c(nc2c1)O[C@@H]1C[C@@H](C(=O)N[C@]2(C(=O)NS(=O)(=O)C4(C)CC4)C[C@H]2C(F)F)N(C1)C(=O)[C@H](C(C)(C)C)NC(=O)O[C@@H]1C[C@@H]2C[C@@H]2[C@H]1CCCCC3 [Example 2]
Response given: 8.85

Challenge: // pEC50 lookup, key: CC(C)(C)[C@@H]1NC(=O)O[C@@H]2C[C@@H]3C[C@@H]3[C@H]2CCCCCc2nc3ccc(C#N)cc3nc2O[C@@H]2C[C@@H](C(=O)N[C@]3(C(=O)NS(=O)(=O)C4(C)CC4)C[C@H]3C(F)F)N(C2)C1=O [Example 23]
Response given: 8.64

Challenge: // pEC50 lookup, key: CC(C)(C)[C@@H]1NC(=O)O[C@@H]2C[C@@H]3C[C@@H]3[C@H]2CCCCCc2nc3ccc4ccccc4c3nc2OC2C[C@@H](C(=O)N[C@]3(C(=O)NS(=O)(=O)C4(C)CC4)C[C@H]3C(F)F)N(C2)C1=O (some centres unmarked) [Example 22]
Response given: 8.57

Challenge: // pEC50 lookup, key: COc1ccc2nc3c(nc2c1)O[C@@H]1C[C@@H](C(=O)N[C@]2(C(=O)NS(=O)(=O)C4CC4)C[C@H]2C(F)F)N(C1)C(=O)[C@H](C(C)(C)C)NC(=O)O[C@@H]1[C@H]2CC[C@H](C2)[C@H]1CCCCC3 [Example 4]
Response given: 7.57

Challenge: // pEC50 lookup, key: COc1ccc2nc3c(nc2c1)O[C@@H]1C[C@@H](C(=O)N[C@]2(C(=O)NS(=O)(=O)C4CC4)C[C@H]2C(F)F)N(C1)C(=O)[C@H](C(C)(C)C)NC(=O)O[C@@H]1C[C@@H]2C[C@@H]2[C@H]1CCCCC3(F)F (racemic) [Example 9]
Response given: 8.96

Challenge: // pEC50 lookup, key: CC(C)(C)[C@@H]1NC(=O)O[C@@H]2C[C@@H]3C[C@@H]3[C@H]2CCCCCc2nc3ccc(F)cc3nc2O[C@@H]2C[C@@H](C(=O)N[C@]3(C(=O)NS(=O)(=O)C4CC4)C[C@H]3C(F)F)N(C2)C1=O [Example 12]
Response given: 8.72

###

- Test system: genotype 4a stable HCV replicon (ED43) in Huh-7-derived cells
- RUN_DESCRIPTION: Stable subgenomic HCV replicon, genotype 4a, Renilla luciferase
- Assay type: cell-based
- CONDITION_DESCRIPTION: Hepatitis C virus, 72 h, read-out: EC50 4A RLUC
Assign pEC50 to each entry below.
Reminder that pEC50 means the negative base-10 logarithm of the concentration expressed in mol/L.

Challenge: // pEC50 lookup, key: `COc1ccc2cc3c(nc2c1)O[C@@H]1C[C@@H](C(=O)N[C@]2(C(=O)NS(=O)(=O)C4CC4)C[C@H]2C(F)F)N(C1)C(=O)[C@H](C(C)(C)C)NC(=O)O[C@@H]1C[C@@H]2C[C@@H]2[C@H]1CCCCC3`
Response given: 8.85

Challenge: // pEC50 lookup, key: `CC(C)(C)[C@@H]1NC(=O)O[C@@H]2C[C@@H]3C[C@@H]3[C@H]2CC/C=C/C(F)(F)c2nc3ccc(C#N)cc3nc2O[C@@H]2C[C@@H](C(=O)N[C@]3(C(=O)NS(=O)(=O)C4(C)CC4)C[C@H]3C(F)F)N(C2)C1=O`
Response given: 8.44

###

Assign pEC50 to each entry below.
- System: genotype 1a (H77) wild-type transient HCV replicon in Huh-7-derived cells
- RUN_DESCRIPTION: Transient-transfected HCV replicon, genotype 1a wild type
- Type: cell-based
- CONDITION_DESCRIPTION: Hepatitis C virus; transient-transfected replicon genotype 1a wild type, 72 h; read-out: EC50 1A WT
Reminder that pEC50 means the negative base-10 logarithm of the concentration expressed in mol/L.

Challenge: // pEC50 lookup, key: CC(C)(C)[C@@H]1NC(=O)O[C@@H]2C[C@@H]3C[C@@H]3[C@H]2CCCCCc2nc3ccc4ccccc4c3nc2OC2C[C@@H](C(=O)N[C@]3(C(=O)NS(=O)(=O)C4(C)CC4)C[C@H]3C(F)F)N(C2)C1=O (stereo partly shown)
Response given: 8.77

Challenge: // pEC50 lookup, key: CC(C)(C)[C@@H]1NC(=O)O[C@@H]2C[C@@H]3C[C@@H]3[C@H]2CCCCC(F)(F)c2nc3cc(F)c(F)cc3nc2O[C@@H]2C[C@@H](C(=O)N[C@]3(C(=O)NS(=O)(=O)C4CC4)C[C@H]3C(F)F)N(C2)C1=O (racemic)
Response given: 8.80

Challenge: // pEC50 lookup, key: `CC(C)(C)[C@@H]1NC(=O)O[C@@H]2C[C@@H]3C[C@@H]3[C@H]2CCCCC(F)(F)c2nc3ccc(C#N)cc3nc2O[C@@H]2C[C@@H](C(=O)N[C@]3(C(=O)NS(=O)(=O)C4(C)CC4)C[C@H]3C(F)F)N(C2)C1=O`
Response given: 9.05

Challenge: // pEC50 lookup, key: `COc1ccc2nc3c(nc2c1)O[C@@H]1C[C@@H](C(=O)N[C@]2(C(=O)NS(=O)(=O)C4(C)CC4)C[C@H]2C(F)F)N(C1)C(=O)[C@H](C(C)(C)C)NC(=O)O[C@@H]1C[C@@H]2C[C@@H]2[C@H]1CCCCC3(F)F`
Response given: 8.85

###

- System: genotype 1a (H77) wild-type transient HCV replicon in Huh-7-derived cells
- RUN_DESCRIPTION: Transient-transfected HCV replicon, genotype 1a wild type
- Format: cell-based
- CONDITION_DESCRIPTION: Hepatitis C virus; transient-transfected replicon genotype 1a wild type, 72 h; read-out: EC50 1A WT
ENDPOINT_NAME: EC50
Hey, just the number and the unit after it is fine.

Challenge: // EC50 lookup, key: `COc1ccc2nc3c(nc2c1)O[C@@H]1C[C@@H](C(=O)N[C@]2(C(=O)NS(=O)(=O)C4(C)CC4)C[C@H]2C(F)F)N(C1)C(=O)[C@H](C(C)(C)C)NC(=O)O[C@H]1[C@H](CCCCC3)C[C@H]2C[C@H]21`
Response given: 72 nM

Challenge: // EC50 lookup, key: `COc1ccc2nc3c(nc2c1)O[C@@H]1C[C@@H](C(=O)N[C@]2(C(=O)NS(=O)(=O)C4CC4)C[C@H]2C(F)F)N(C1)C(=O)[C@H](C(C)(C)C)NC(=O)O[C@H]1[C@H](CCCCC3)C[C@H]2C[C@H]21`
Response given: 72 nM

Challenge: // EC50 lookup, key: `COc1ccc2nc3c(nc2c1)O[C@@H]1C[C@@H](C(=O)N[C@]2(C(=O)NS(=O)(=O)C4(C)CC4)C[C@H]2C(F)F)N(C1)C(=O)[C@H](C(C)(C)C)NC(=O)O[C@@H]1[C@H]2CC[C@H](C2)[C@H]1CCCCC3`
Response given: 4.2 nM

Challenge: // EC50 lookup, key: COc1ccc2nc3c(nc2c1)O[C@@H]1C[C@@H](C(=O)N[C@]2(C(=O)NS(=O)(=O)C4CC4)C[C@H]2C(F)F)N(C1)C(=O)[C@H](C(C)(C)C)NC(=O)O[C@@H]1C[C@@H]2C[C@@H]2[C@H]1CCCCC3(F)F (racemic)
Response given: 1.3 nM

###

Assign EC50 to each entry below.
- System: genotype 1a (H77) wild-type transient HCV replicon in Huh-7-derived cells
- RUN_DESCRIPTION: Transient-transfected HCV replicon, genotype 1a wild type
- Assay type: cell-based
- CONDITION_DESCRIPTION: Hepatitis C virus; transient-transfected replicon genotype 1a wild type, 72 h; read-out: EC50 1A WT
Entry rule: numbers only, all in nM.

Challenge: // EC50 lookup, key: `CC(C)(C)[C@@H]1NC(=O)O[C@@H]2C[C@@H]3C[C@@H]3[C@H]2CCCCCc2nc3ccc(C#N)cc3nc2O[C@@H]2C[C@@H](C(=O)N[C@]3(C(=O)NS(=O)(=O)C4(C)CC4)C[C@H]3C(F)F)N(C2)C1=O`
Response given: 1.2

Challenge: // EC50 lookup, key: `COc1ccc2nc3c(nc2c1)O[C@@H]1C[C@@H](C(=O)N[C@]2(C(=O)NS(=O)(=O)C4(C)CC4)C[C@H]2CC(F)F)N(C1)C(=O)[C@H](C(C)(C)C)NC(=O)O[C@@H]1C[C@@H]2C[C@@H]2[C@H]1CCCCC3(F)F`
Response given: 5.2

Challenge: // EC50 lookup, key: `CC(C)(C)[C@@H]1NC(=O)O[C@@H]2C[C@@H]3C[C@@H]3[C@H]2CCCCCc2nc3ccc(F)cc3nc2O[C@@H]2C[C@@H](C(=O)N[C@]3(C(=O)NS(=O)(=O)C4(C)CC4)C[C@H]3C(F)F)N(C2)C1=O`
Response given: 1.4

Challenge: // EC50 lookup, key: `COc1ccc2c(=O)n3c(nc2c1)O[C@@H]1C[C@@H](C(=O)N[C@]2(C(=O)NS(=O)(=O)C4(C)CC4)C[C@H]2C(F)F)N(C1)C(=O)[C@H](C(C)(C)C)NC(=O)O[C@@H]1C[C@@H]2C[C@@H]2[C@H]1CCCCC3`
Response given: 0.8
